- Test Description: physchem
- Settings: pH 6.5, Solubility Conc.
Positions of bridges follow the written chain, without caps; N, C: chain ends. Non-standard residues stand in square brackets, D forms with d. Residues, ends and D or L forms follow the SMILES beside them. Groups on a side chain read outwards from the residue. *: point of attachment. Lys(CH2CO2H)2 = N[C@@H](CCCCN(CC(=O)O)CC(=O)O)C(=O)O; C16 diacid = O=C(O)CCCCCCCCCCCCCCC(=O)*; Orn = NCCC[C@H](N)C(=O)O; AEEA = NCCOCCOCC(=O)O
Reported Metric: solubility (µM)

Compound | Unit Name | Recorded Measurement
CC(=O)N[C@H]1CCC(=O)NCCC[C@@H](C(=O)N2CCC[C@H]2C(=O)N2CCC[C@H]2C(=O)N[C@@H](CCCNC(=N)N)C(=O)N[C@@H](CC(=O)O)C(=O)N[C@@H](CCCCN(CC(=O)O)CC(=O)O)C(=O)N[C@@H](CCCCNC(=O)COCCOCCNC(=O)CCCCCCCCCCCCCCC(=O)O)C(N)=O)NC(=O)[C@H](Cc2c[nH]c3ccccc23)NC(=O)[C@H](CCCNC(=N)N)NC(=O)[C@@H](Cc2ccccc2)NC(=O)[C@H](Cc2cnc[nH]2)NC1=O [Example 18] (Ac-EH[dF]RW[Orn]PPRD[Lys(CH2CO2H)2]K([AEEA-C16 diacid])-NH2; lactam 1-6) | µM | 392

Data origin, for the record: patent US20130012432A1
